From: PubChem BioAssay (NCI)

Tested on: UACC-62 melanoma
Experiment: NCI tumour cell line growth inhibition, 48 h
Assay readout: TGI

Given the molecule `COC(=O)C(=Cc1ccccc1[N+](=O)[O-])C(=O)OC` , what is its reported TGI?
15.5 µM

----------
Tested on: SR leukemia
Experiment: NCI tumour cell line growth inhibition, 48 h
Where a SMILES comes first, the peptide text is derived from it. Bridges are numbered along the chain shown (N, C = ends). [ ]: non-standard residue; d: D form. The star is where a group is joined. Cya = N[CH](CS(=O)(=O)O)C(=O)O; X49 = CC(C)CCCCCCCC(O)CC(=O)*; GABA = NCCCC(=O)O
Here the recorded TGI is given for each entry.

Check out these entries, answers already filled in.
1. Cc1cc(CN2CCCCC2)c(O)c(CN2CCCCC2)c1 :: > 100 µM
2. Cn1cnc2[nH]c(=O)[nH]c(=S)c21 :: > 100 µM
3. C/C(O)=c1\cc(C#N)c(=C(C#N)C#N)nc1C :: > 100 µM
4. CC(C)CCCCCCCC(O)CC(=O)NC(CS(=O)(=O)O)C(=O)NC(CC(C)C)C(=O)NCCCC(=O)NC(Cc1cnc[nH]1)C(=O)NC(C)C(=O)NC1C(=O)NC(C(C)O)C(=O)NC(Cc2cnc[nH]2)C(=O)NC(C)C(=O)NC(C(C)O)C(=O)OC1C (stereo not drawn) (X49-[Cya]L[GABA]HATTHAT; ester 6-C; configuration not given here) :: > 25 µM
5. O=C(CSCC(=O)N/N=C\c1cc(Cl)cc(Cl)c1O)N/N=C\c1cc(Cl)cc(Cl)c1O :: 11 µM

Would you kindly look at the next entry?
Given the compound CC(=O)NCCC1CN(C(=O)/C=C\I)c2ccccc21 (stereo not drawn) , what is its reported TGI?
> 65.9 µM

----------
System: RPMI-8226 leukemia
Assay: NCI tumour cell line growth inhibition, 48 h
fulfilled means recorded TGI is 9 µM or above; not fulfilled means it is below 9 µM.

Use the examples below as a reference point.
1) C[C@]12CC[C@@H]3c4ccc(O)cc4CC[C@H]3[C@@H]1CC[C@@H]2NS(=O)(=O)c1cccc(OC(F)(F)F)c1 :: not fulfilled
2) CC(=O)OC1COC(n2c3ccccc3c3ccc4c5ccccc5[nH]c4c32)C(OC(C)=O)C1OC(C)=O (stereo not drawn) :: fulfilled
3) COc1ccc(NCc2cc(OC)cc(OC)c2)cc1 :: fulfilled
4) Cc1cn(C(=O)NC23CC4CC(CC(C4)C2)C3)c(=O)[nH]c1=O :: fulfilled
5) CCOC(=O)C1=CC(C)(C(=O)OCC)Nc2c(nc(SC)[nH]c2=O)N1 (stereo not drawn) :: fulfilled
6) O=C(c1ccccc1)c1ccc2nc(-c3c(Cl)c(Cl)c(Cl)c(Cl)c3C(=O)N/N=C\C=C\c3ccccc3)[nH]c2c1 :: fulfilled
7) CC(=O)Nc1cccc(C#Cc2cncnc2Nc2ccc(OCc3cccc(F)c3)c(Cl)c2)n1 :: fulfilled
8) O=C(NNc1cn[nH]c(=O)n1)c1cccc2nc3ccccc3nc12 :: fulfilled
9) CCCCSC(=CC(=O)c1cccc(C(=O)C=C(SCCCC)SCCCC)n1)SCCCC :: fulfilled
10) C=C1CCC(O)C/C1=C/C=C1\CCCC2(C)C1CCC2C(C)CCCC(C)C (stereo not drawn) :: fulfilled

Dear colleague, could you confirm whether `COc1cc(Nc2nc3c(N)cc(C(F)(F)F)cc3nc2-c2ccccc2)cc(OC)c1OC` has TGI at or above 9 µM?
fulfilled

Dear colleague, could you confirm whether `COC(=O)Cc1c([C@H]2[C@H](CC(=O)OC)c3ccccc3N2C(=O)C(F)(F)F)[nH]c2ccccc12` has TGI at or above 9 µM?
fulfilled

Dear colleague, could you confirm whether C=C1CC(OC)(C(OC)C(=O)N(C)[C@H]2OCO[C@H]3C2O[C@H](C[C@@H](COC)OC)C(C)(C)C3OC)O[C@H](C)[C@@H]1C (stereo partly drawn) has TGI at or above 9 µM?
fulfilled
